# protocolDescription: Tissue distribution of [3H]INT131 after intraperitoneal injection (penetration of the intact BBB)
# Format: in vivo, Sprague-Dawley rats
# measurementConditions: Sprague-Dawley, brain, intraperitoneal; 1 h after ~50 mg/kg ip, rat; read-out: INT131 concentration in Brain
recordedEndpoint: concentration at 1 h (ng/g)

1. O=S(=O)(Nc1cc(Cl)c(Oc2cnc3ccccc3c2)c(Cl)c1)c1ccc(Cl)cc1Cl :: 569

* * *

# protocolDescription: Tissue distribution of [3H]INT131 after intraperitoneal injection (penetration of the intact BBB)
# Format: in vivo, Sprague-Dawley rats
# measurementConditions: Sprague-Dawley, liver, intraperitoneal; 6 h after ~50 mg/kg ip, rat; read-out: INT131 concentration in Liver
# Protocol: To test whether INT131 is able to penetrate the intact BBB INT131 was radiolabeled with tritium (“[^3H]INT131”), prior to intraperitoneal injection into adult Sprague-Dawley rats. The purity of the radiolabeled INT131 was determined by high-performance liquid chromatography (HPLC) fractionation prior to injection, and again at the close of the experiment. […]
recordedEndpoint: concentration at 6 h (ng/g)

1) O=S(=O)(Nc1cc(Cl)c(Oc2cnc3ccccc3c2)c(Cl)c1)c1ccc(Cl)cc1Cl [INT131] :: 141000
